Sourced from ChEMBL document CHEMBL1201862

GI50 values, listed per item
# Tested on: SN12C
# test.method.notes: NCI tumour cell line growth inhibition, 48 h
The source made the active and inactive calls. Rule as the data show it: active = GI50 up to about 1.1 µM and inactive = higher. Peptide text beside a SMILES is read from it. * marks the point of attachment. Cbz = O=C(OCc1ccccc1)*; OBn = c1ccc(CO*)cc1

compound	GI50
C[N+]1(C)CCCC1C(=O)[O-] (stereo unspecified)	> 100 µM (inactive)
CC1=NN(c2ccccc2Cl)C2(C1)C(Cl)C(=O)N2c1nc2ccccc2s1 (stereo unspecified)	31.8 µM (inactive)
CSc1c(C)c(C)nn1-c1ccccc1	> 100 µM (inactive)
O=S(O)CCCCCSSCCCCSSCCCCCS(=O)O	> 100 µM (inactive)
CN1C(=O)NC(=O)/C(=C\Nc2ncccn2)C1=O	> 100 µM (inactive)
CC(C)OC(=O)C1=C2c3ncccc3C(=O)N2[C@@H](Cl)[C@H](Cl)[C@H]1Cl	21.8 µM (inactive)
O=C1CCC2(c3ccc(Cl)cc3)Nc3ncccc3N12 (stereo unspecified)	> 100 µM (inactive)
Cc1n[nH]c(=O)n1/N=C/c1ccc([N+](=O)[O-])cc1	> 100 µM (inactive)
Clc1ccc(C(OCn2ccnc2)c2nc3ccccc3[nH]2)c(Cl)c1 (stereo unspecified)	61.4 µM (inactive)
Clc1ccc(/C=N/Nc2nnc3c4ccccc4c4ncccc4c3n2)cc1	> 10 µM (inactive)
O=C(CSc1nnc(Cc2ccccc2)o1)Nc1ccccc1	> 100 µM (inactive)
O=C1C(O)=C(CCCCCCCCC2CCCCC2)C(=O)c2ccccc21	7.89 µM (inactive)
O=C(NC(CO)CO)c1ccc2cc(C(=O)N3CC(CCl)c4ccc([N+](=O)[O-])cc43)[nH]c2c1 (stereo unspecified)	> 100 µM (inactive)
C=CCOCn1ccc(=O)[nH]c1=O	> 100 µM (inactive)
O=C(Nc1c(O)[nH]c(=S)[nH]c1=O)c1ccccn1	> 100 µM (inactive)
O=C1CC(c2cccc([N+](=O)[O-])c2)C2(C(=O)NC(=S)NC2=O)C(c2cccc([N+](=O)[O-])c2)C1 (stereo unspecified)	19.9 µM (inactive)
COc1ccc(-c2c(C#N)c(NC(=S)NC(=O)c3ccccc3)nc3c2CCCC3)cc1OC	49 µM (inactive)
CN(C)c1ccc(/C=c2/sc3nc(=O)c(-c4ccccc4NC(=O)C(F)(F)F)nn3c2=O)cc1	> 100 µM (inactive)
C/C(=N\NC(N)=S)c1ccc2c(c1)OCO2	> 100 µM (inactive)
COC(=O)CNC(=O)C(C)NC(=O)C(CC(=O)OCc1ccccc1)NC(=O)OCc1ccccc1 (stereo not drawn) (Cbz-Asp(OBn)-Ala-Gly-OMe; configuration not given here)	91.6 µM (inactive)
CC(C)(C)c1ccc2c(c1)C#Cc1cc(C(C)(C)C)ccc1OCCCO2	> 100 µM (inactive)
